- protocol text: Cellular cytotoxicity
- Assay type: cell-based, human
- assay conditions: human, HOS osteosarcoma cells
Overview of recorded CC50 at 48 h for various compounds
measured metric: CC50 at 48 h (µM)

>>> print(df.to_string())
                                   compound  measured_metric  result_qualifier  assay_value
0  Cc1nnc(C(=O)NC(C)(C)c2nc(C(=O)NCc3ccc(F)cc3)c(O)c(=O)n2C)o1 [compound 1, raltegravir, reference compound]     CC50 at 48 h                 >          100
1  COC(=O)CCc1c2c(c(O)c(=O)n1C(C)C)C(=O)N(Cc1ccc(F)c(Cl)c1)C2=O [5e]     CC50 at 48 h                 =          392
